Reference source: PubChem BioAssay AID248

Reported values of T/C for individual entries
# Test system: L1210 leukemia ip in BDF1 mice, survival T/C
# experiment summary: NCI In Vivo Anticancer Drug Screen. Data for tumor model L1210 Leukemia (intraperitoneal) in B6D2F1 (BDF1) mice
# test settings: endpoint: mean survival time; dose: 100.0 mg/kg/injection; schedule: Q01DX Z (ip); vehicle: saline; higher = longer survival
# Experimental: The antitumor activity of compounds was measured in mice bearing transplantable tumors. Survival or tumor size were measured and the results are expressed as the measurement made in the treated group (T) divided by the measurement made in the vehicle treated control group (C). The tumor model used in this assay is L1210 Leukemia (intraperitoneal) in B6D2F1 (BDF1) mice
Inconclusive results and toxic doses are left out.

The cases that follow already have their T/C on record.
compound: NCCCC(N)C(=O)NCCCCCCNCCCCCCNC(=O)C(N)CCCN (centres undefined)
system tested: L1210 leukemia ip in BDF1 mice, survival T/C
T/C: 91 % of control

compound: CN(CC(=O)NCCCCCCCCCCNC(=O)CN(C)C(=O)OCc1ccccc1)C(=O)OCc1ccccc1
system tested: L1210 leukemia ip in BDF1 mice, survival T/C
T/C: 91 % of control

compound: CCOc1ccc2nc(S(N)(=O)=O)sc2c1
system tested: L1210 leukemia ip in BDF1 mice, survival T/C
T/C: 100 % of control

Continue with the next compound.
// query Tell me measured T/C for NCCCCC(N)C(=O)NCCCCCCNCCCCCCNC(=O)C(N)CCCCN (centres undefined) please.
// result 95 % of control
